Values compiled from ChEMBL document CHEMBL1139973.

Readings of Activity for the listed compounds
- tested-target: ATP-dependent translocase ABCB1 (Homo sapiens)
- Sequence (P08183 whole entry): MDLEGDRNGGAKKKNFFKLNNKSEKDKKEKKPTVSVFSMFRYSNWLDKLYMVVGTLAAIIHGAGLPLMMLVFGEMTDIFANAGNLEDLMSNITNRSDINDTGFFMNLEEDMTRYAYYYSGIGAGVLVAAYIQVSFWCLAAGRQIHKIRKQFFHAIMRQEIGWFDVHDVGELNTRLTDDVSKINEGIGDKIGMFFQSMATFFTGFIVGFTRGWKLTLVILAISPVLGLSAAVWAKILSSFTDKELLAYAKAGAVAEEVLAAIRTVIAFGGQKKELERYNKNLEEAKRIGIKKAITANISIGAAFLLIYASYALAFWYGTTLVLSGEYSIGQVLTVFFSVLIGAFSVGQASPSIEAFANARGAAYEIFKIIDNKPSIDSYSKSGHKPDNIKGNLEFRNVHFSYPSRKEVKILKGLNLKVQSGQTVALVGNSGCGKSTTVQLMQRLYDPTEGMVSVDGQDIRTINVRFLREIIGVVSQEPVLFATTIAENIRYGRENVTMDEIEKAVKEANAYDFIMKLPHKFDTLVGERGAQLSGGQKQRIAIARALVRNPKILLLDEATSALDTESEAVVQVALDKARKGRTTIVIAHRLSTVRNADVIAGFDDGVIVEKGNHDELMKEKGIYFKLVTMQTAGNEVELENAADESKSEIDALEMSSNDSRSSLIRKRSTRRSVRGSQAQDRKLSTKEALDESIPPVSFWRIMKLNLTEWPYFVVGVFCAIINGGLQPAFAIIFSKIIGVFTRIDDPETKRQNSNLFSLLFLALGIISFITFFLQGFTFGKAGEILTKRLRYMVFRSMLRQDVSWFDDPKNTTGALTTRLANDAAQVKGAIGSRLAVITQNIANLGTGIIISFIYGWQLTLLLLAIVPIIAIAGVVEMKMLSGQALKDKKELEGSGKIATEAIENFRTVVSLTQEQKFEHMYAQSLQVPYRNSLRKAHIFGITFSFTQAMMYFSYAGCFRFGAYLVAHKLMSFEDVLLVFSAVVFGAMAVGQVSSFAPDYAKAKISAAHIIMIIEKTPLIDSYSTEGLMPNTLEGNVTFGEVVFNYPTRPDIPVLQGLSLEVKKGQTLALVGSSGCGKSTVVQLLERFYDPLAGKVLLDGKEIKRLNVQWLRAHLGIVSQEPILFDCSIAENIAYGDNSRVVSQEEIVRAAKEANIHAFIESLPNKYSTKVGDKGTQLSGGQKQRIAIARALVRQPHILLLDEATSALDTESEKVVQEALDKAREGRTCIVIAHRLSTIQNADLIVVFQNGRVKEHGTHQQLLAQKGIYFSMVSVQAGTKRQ
- assay-remarks: Inhibition of Pgp in multidrug-resistant human 2780AD cells assessed as vincristine accumulation at 0.1 ug/mL relative to control
- Assay type: cell-based
- Parameters: scale not given: the % may be the effect or the level left
- cond: a2780 adr
Give the value, in units of %, as a plain number.

Guide cases for Activity, answers given:
structure-string	experimental-result
C=C1[C@@H](OC(C)=O)CC[C@@]2(C)C[C@H](O)C3=C(C)C[C@H](OC(=O)/C=C/c4ccccc4)[C@@H]([C@@H](OC(C)=O)[C@H]12)C3(C)C	121
C=C1[C@@H](OC(C)=O)CC[C@@]2(C)[C@@H](O)[C@H](OC(C)=O)C3=C(C)C[C@H](OC(C)=O)[C@@H]([C@@H](OC(C)=O)[C@H]12)C3(C)C	86
C=C1[C@@H](OC(C)=O)CC[C@@]2(C)C[C@H](OC(C)=O)C3=C(C)C[C@H](O)[C@@H]([C@@H](OC(C)=O)[C@H]12)C3(C)C	102
C=C1[C@@H](OC(C)=O)CC[C@@]2(C)C[C@H](OC(=O)/C=C/c3ccccc3)C3=C(C)C[C@H](O)[C@@H]([C@@H](OC(C)=O)[C@H]12)C3(C)C	114
C=C1[C@@H](OC(C)=O)CC[C@@]2(C)C[C@H](O)C3=C(C)C[C@H](OC(C)=O)[C@@H]([C@@H](OC(C)=O)[C@H]12)C3(C)C	92
C=C1[C@@H](OC(C)=O)CC[C@@]2(C)C[C@H](OC(C)=O)C3=C(C)C[C@H](OC(=O)/C=C/c4ccccc4)[C@@H]([C@@H](OC(C)=O)[C@H]12)C3(C)C	95
C=C1[C@@H](OC(C)=O)CC[C@@]2(C)C[C@H](OC(=O)/C=C/c3ccccc3)C3=C(C)C[C@H](OC(=O)/C=C/c4ccccc4)[C@@H]([C@@H](OC(C)=O)[C@H]12)C3(C)C	91
C=C1[C@@H](OC(C)=O)CC[C@@]2(C)C[C@H](OC(C)=O)C3=C(C)C[C@H](OC(C)=O)[C@@H]([C@@H](O)[C@H]12)C3(C)C	101

Problem: Would you mind telling me what Activity value was observed for C=C1[C@@H](OC(C)=O)CC[C@@]2(C)C[C@H](OC(=O)/C=C/c3ccccc3)C3=C(C)C[C@H](OC(C)=O)[C@@H]([C@@H](OC(C)=O)[C@H]12)C3(C)C ?
Result: 132

###

- Tested on: HepG2
- assay-remarks: Growth inhibition of human HepG2 cells
- Assay type: functional, cell-based
reported-property: IC50

Problem: Would you mind telling me what IC50 value was observed for C=C1[C@@H](OC(C)=O)CC[C@@]2(C)C[C@H](OC(=O)/C=C/c3ccccc3)C3=C(C)C[C@H](OC(=O)/C=C/c4ccccc4)[C@@H]([C@@H](OC(C)=O)[C@H]12)C3(C)C ?
Result: > 147 µM

Problem: Thanks! And C=C1[C@@H](OC(C)=O)CC[C@@]2(C)C[C@H](OC(C)=O)C3=C(C)C[C@H](OC(=O)CCC)[C@@H]([C@@H](OC(C)=O)[C@H]12)C3(C)C ?
Result: 18.5 µM

Problem: Thanks! And C=C1[C@@H](OC(C)=O)CC[C@@]2(C)[C@@H](OC(=O)/C=C/c3ccccc3)[C@H](OC(C)=O)C3=C(C)C[C@H](OC(C)=O)[C@@H]([C@@H](OC(C)=O)[C@H]12)C3(C)C ?
Result: > 154 µM

Problem: Thanks! And C=C1[C@@H](O)CC[C@@]2(C)C[C@H](OC(C)=O)C3=C(C)C[C@H](OC(C)=O)[C@@H]([C@@H](OC(C)=O)[C@H]12)C3(C)C ?
Result: 183 µM
